Organism: Rattus norvegicus
procedure-details: Open TG-GATES - Regimen: Single
Format: toxicity, organism-based, Sprague-Dawley
Design: regimen Single, gender Male, age 6 weeks
protocol-conditions: in vivo, po, 0 mg/kg, 9 h, tissue Plasma, route gavage, dose level Control
Each entry below lists one item and its recorded GLC value.

{"molecule": "CC[C@@H](CO)NCCN[C@@H](CC)CO", "GLC": "180.2 mg/dL"}
{"molecule": "O=C(O)COc1nn(Cc2ccccc2)c2ccccc12", "GLC": "197.2 mg/dL"}
{"molecule": "CC(=O)N1CCN(c2ccc(OCC3COC(Cn4ccnc4)(c4ccc(Cl)cc4Cl)O3)cc2)CC1 (configuration not stated)", "GLC": "180.4 mg/dL"}
{"molecule": "CCN(CC)N=O", "GLC": "206.4 mg/dL"}
{"molecule": "CC(=O)Nc1ccc2c(c1)Cc1ccccc1-2", "GLC": "210.4 mg/dL"}
{"molecule": "CC(C)Cc1ccc(C(C)C(=O)O)cc1 (configuration not stated)", "GLC": "178 mg/dL"}
{"molecule": "CC(CCc1ccccc1)NCC(O)c1ccc(O)c(C(N)=O)c1 (configuration not stated)", "GLC": "175.6 mg/dL"}

###

Species on record: Rattus norvegicus
procedure-details: Open TG-GATES - Regimen: Single
Assay type: toxicity, organism-based, Sprague-Dawley
Parameters: regimen Single, gender Male, age 6 weeks
protocol-conditions: in vivo, po, 0 mg/kg, 3 h, tissue Blood, route gavage, dose level Control

{"compound": "CC(C)Cc1ccc(C(C)C(=O)O)cc1 (configuration not stated)", "Hb / g/dL": 13.2}
{"compound": "CC(=O)Nc1ccc2c(c1)Cc1ccccc1-2", "Hb / g/dL": 13.6}
{"compound": "CCN(CC)N=O", "Hb / g/dL": 13.7}
{"compound": "CC[C@@H](CO)NCCN[C@@H](CC)CO", "Hb / g/dL": 13.3}
{"compound": "O=C(O)COc1nn(Cc2ccccc2)c2ccccc12", "Hb / g/dL": 13.6}
{"compound": "CC(CCc1ccccc1)NCC(O)c1ccc(O)c(C(N)=O)c1 (configuration not stated)", "Hb / g/dL": 13}
{"compound": "CC(=O)N1CCN(c2ccc(OCC3COC(Cn4ccnc4)(c4ccc(Cl)cc4Cl)O3)cc2)CC1 (configuration not stated)", "Hb / g/dL": 12.8}

###

Organism: Rattus norvegicus
procedure-details: Open TG-GATES - Regimen: Single
Assay type: toxicity, organism-based, Sprague-Dawley
Set-up: regimen Single, gender Male, age 6 weeks
protocol-conditions: in vivo, po, 0 mg/kg, 3 h, tissue Plasma, route gavage, dose level Control
This listing pairs compounds with measured ALP.
measurement-label: ALP (IU/L)

{"compound": "CC(=O)N1CCN(c2ccc(OCC3COC(Cn4ccnc4)(c4ccc(Cl)cc4Cl)O3)cc2)CC1 (configuration not stated)", "units-of-measure": "IU/L", "data-value": 1856.6}
{"compound": "CC(CCc1ccccc1)NCC(O)c1ccc(O)c(C(N)=O)c1 (configuration not stated)", "units-of-measure": "IU/L", "data-value": 1611}
{"compound": "CC(=O)Nc1ccc2c(c1)Cc1ccccc1-2", "units-of-measure": "IU/L", "data-value": 1018.4}
{"compound": "CC[C@@H](CO)NCCN[C@@H](CC)CO", "units-of-measure": "IU/L", "data-value": 1599}
{"compound": "CC(C)Cc1ccc(C(C)C(=O)O)cc1 (configuration not stated)", "units-of-measure": "IU/L", "data-value": 1578.8}
{"compound": "O=C(O)COc1nn(Cc2ccccc2)c2ccccc12", "units-of-measure": "IU/L", "data-value": 955}
{"compound": "CCN(CC)N=O", "units-of-measure": "IU/L", "data-value": 1051}
